Listed next: entries and their corresponding Plant response rating, Ryegrass, Italian.
tested on: ryegrass, Italian (Italian ryegrass, Lolium multiflorum); test: Test A postemergence; type: in vivo; conditions: 500 g ai/ha, postemergence; 0 to 100 scale, 0 no effect, 100 complete control
Excerpt: […]
Parameter measured: Plant response rating, Ryegrass, Italian

In [3]: df
Out[3]:
                                   molecule                        parameter_measured  reported
0  CN1CC(c2ccc(F)cc2)C(C(=O)Nc2ccccc2F)C1=O (stereo not drawn) [Compound 437]  Plant response rating, Ryegrass, Italian        20
1  O=C1NCC(c2ccc(F)cc2F)C1C(=O)Nc1cccc(F)c1F (stereo not drawn) [Compound 455]  Plant response rating, Ryegrass, Italian         0
2  CN1CC(c2cccc(OC(F)(F)C(F)F)c2)C(C(=O)Nc2ccc(F)c(F)c2F)C1=O (stereo not drawn) [Compound 429]  Plant response rating, Ryegrass, Italian        80
3  O=C1NCC(c2cccc(OC(F)F)c2)C1C(=O)Nc1ccccc1OC(F)F (stereo not drawn) [Compound 427]  Plant response rating, Ryegrass, Italian        20
4  Cc1cc(C2CN(C)C(=O)C2C(=O)Nc2cccc(F)c2F)ccc1F (stereo not drawn) [Compound 403]  Plant response rating, Ryegrass, Italian        70
5  Cc1cc(C2CN(C)C(=O)C2C(=O)Nc2ccccc2C(F)(F)F)ccc1F (stereo not drawn) [Compound 406]  Plant response rating, Ryegrass, Italian        40
6  O=C1NCC(c2ccccc2-c2ccccc2)C1C(=O)Nc1ccc(F)c(F)c1F (racemic) [Compound 382]  Plant response rating, Ryegrass, Italian         0
7  CC(=O)Oc1cccc(C2CNC(=O)C2C(=O)Nc2cccc(F)c2F)c1 (stereo not drawn) [Compound 432]  Plant response rating, Ryegrass, Italian        20
8  O=C1NCC(c2cccc(OC(F)F)c2)C1C(=O)Nc1cccc(OC(F)F)c1 (stereo not drawn) [Compound 422]  Plant response rating, Ryegrass, Italian         0
